Reported values of pIC50 for individual entries
target: human NaV subtype, like NaV 1.7 (Homo sapiens, UniProt Q15858); test: E-VIPR optical membrane potential assay with electrical stimulation; conditions: active against one or more sodium channels; Table 3 does not name the assay or NaV subtype; read-out: Binned Activity Data (IC50)
Sequence (Q15858 whole entry): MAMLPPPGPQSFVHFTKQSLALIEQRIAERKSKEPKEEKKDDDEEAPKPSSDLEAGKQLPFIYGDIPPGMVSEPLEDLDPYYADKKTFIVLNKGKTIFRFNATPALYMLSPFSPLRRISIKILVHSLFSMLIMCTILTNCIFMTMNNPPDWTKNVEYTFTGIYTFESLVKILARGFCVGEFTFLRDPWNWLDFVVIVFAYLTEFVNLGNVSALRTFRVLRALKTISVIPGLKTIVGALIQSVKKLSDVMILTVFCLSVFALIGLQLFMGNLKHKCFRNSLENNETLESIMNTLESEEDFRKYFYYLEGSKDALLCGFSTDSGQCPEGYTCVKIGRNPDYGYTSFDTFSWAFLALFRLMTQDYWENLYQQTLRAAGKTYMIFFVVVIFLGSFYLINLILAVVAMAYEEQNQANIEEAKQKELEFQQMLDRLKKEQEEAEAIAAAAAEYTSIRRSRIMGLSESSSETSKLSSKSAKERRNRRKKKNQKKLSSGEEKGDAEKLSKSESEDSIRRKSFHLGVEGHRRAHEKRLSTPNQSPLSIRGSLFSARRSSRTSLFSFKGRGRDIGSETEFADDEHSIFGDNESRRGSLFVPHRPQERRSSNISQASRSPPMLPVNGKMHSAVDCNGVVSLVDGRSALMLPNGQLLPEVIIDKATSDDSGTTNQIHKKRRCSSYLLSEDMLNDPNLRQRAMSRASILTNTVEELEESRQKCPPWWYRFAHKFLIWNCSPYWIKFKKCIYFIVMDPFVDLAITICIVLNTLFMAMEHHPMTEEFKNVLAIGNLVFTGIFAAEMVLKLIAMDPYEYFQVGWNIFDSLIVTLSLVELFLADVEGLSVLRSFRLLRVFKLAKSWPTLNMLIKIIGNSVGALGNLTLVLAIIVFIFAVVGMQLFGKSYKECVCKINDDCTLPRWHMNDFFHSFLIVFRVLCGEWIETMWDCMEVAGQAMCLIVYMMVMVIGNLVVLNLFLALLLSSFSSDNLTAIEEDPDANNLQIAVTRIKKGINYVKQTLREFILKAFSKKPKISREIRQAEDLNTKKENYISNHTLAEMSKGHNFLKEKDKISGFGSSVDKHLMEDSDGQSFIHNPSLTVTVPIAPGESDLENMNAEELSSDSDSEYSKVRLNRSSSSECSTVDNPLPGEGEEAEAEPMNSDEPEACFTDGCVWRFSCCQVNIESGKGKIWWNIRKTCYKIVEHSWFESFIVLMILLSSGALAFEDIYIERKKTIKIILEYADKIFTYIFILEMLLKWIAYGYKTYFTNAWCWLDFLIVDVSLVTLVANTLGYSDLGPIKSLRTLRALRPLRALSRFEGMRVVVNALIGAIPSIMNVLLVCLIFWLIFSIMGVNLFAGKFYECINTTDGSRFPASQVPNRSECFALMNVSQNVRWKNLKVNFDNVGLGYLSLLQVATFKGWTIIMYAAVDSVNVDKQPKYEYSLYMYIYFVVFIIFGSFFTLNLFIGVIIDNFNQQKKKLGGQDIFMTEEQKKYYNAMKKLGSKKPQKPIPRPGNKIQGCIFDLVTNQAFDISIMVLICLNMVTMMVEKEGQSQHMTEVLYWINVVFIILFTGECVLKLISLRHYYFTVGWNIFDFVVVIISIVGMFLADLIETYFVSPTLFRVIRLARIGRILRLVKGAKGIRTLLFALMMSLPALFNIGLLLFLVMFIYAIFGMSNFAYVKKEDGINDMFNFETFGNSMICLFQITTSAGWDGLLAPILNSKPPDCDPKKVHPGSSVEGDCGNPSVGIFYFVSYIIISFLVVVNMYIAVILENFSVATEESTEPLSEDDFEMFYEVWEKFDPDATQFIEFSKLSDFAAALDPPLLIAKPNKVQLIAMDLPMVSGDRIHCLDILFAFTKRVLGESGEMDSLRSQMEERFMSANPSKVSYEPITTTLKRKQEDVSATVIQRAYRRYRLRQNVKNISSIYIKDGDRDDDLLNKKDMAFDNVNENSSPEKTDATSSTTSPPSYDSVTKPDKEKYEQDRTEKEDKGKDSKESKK
pIC50: −log10 of the molar value.

Sample records with pIC50:
Ask: Given the entry COc1ccc(C(=O)N2CCC3(CC2)c2ccc(C(=O)C(C)C)n2CCN3C)cc1C [Compound 338] , report its measured pIC50.
Result: ≥ 5.70

Ask: Given the entry CC(=O)c1ccc2n1CCN(C)C21CCN(C(=O)c2ccc(C(C)(C)O)c(F)c2)CC1 [Compound 703] , report its measured pIC50.
Result: < 5.30

Ask: Given the entry CCCc1ccc(C(=O)N2CCC3(CC2)c2ccc(C(C)=O)n2CCN3C)cc1 [Compound 292] , report its measured pIC50.
Result: < 5.30

Ask: Given the entry COc1cc(C(=O)N2CCC3(CC2)c2c(Cl)cc(C(F)(F)F)n2CCN3C)ccc1OC(C)C [Compound 9] , report its measured pIC50.
Result: ≥ 5.70

Ask: Given the entry COc1c(C)cccc1C(=O)N1CCC2(CC1)c1ccc(C(=O)C(F)(F)F)n1C[C@H](C)N2C [Compound 675] , report its measured pIC50.
Result: ≥ 5.70

Ask: Given the entry COCC#Cc1ccc(C(=O)N2CCC3(CC2)c2ccc(C(C)=O)n2CCN3C)cc1F [Compound 615] , report its measured pIC50.
Result: < 5.30

Next:
Ask: Given the entry CC(C)Oc1ccc(C(=O)N2CCC3(CC2)c2c(F)cc(C(F)(F)F)n2CCN3C)cn1 [Compound 431] , report its measured pIC50.
Result: 5.30 to 5.70

Ask: Given the entry COc1cc(C(=O)N2CCC3(CC2)NC(C)(C)Cn2c(C(=O)C(F)(F)F)ccc23)ccc1OC(C)C [Compound 375] , report its measured pIC50.
Result: ≥ 5.70

Ask: Given the entry C[C@H]1Cn2c(C(=O)C(F)(F)F)ccc2C2(CCN(C(=O)c3ccc(COCCC(F)(F)F)cc3)CC2)N1C [Compound 449] , report its measured pIC50.
Result: ≥ 5.70

Ask: Given the entry CC(=O)Nc1ccc(-c2ccc(C(=O)N3CCC4(CC3)c3ccc(C(=O)C(F)(F)F)n3CCN4C)cc2C)cn1 [Compound 653] , report its measured pIC50.
Result: 5.30 to 5.70

Ask: Given the entry COc1cc(C(=O)N2CCC3(CC2)c2ccc(C(=O)C(F)(F)F)n2CCN3C)ccc1OCCOC(F)(F)F [Compound 360] , report its measured pIC50.
Result: ≥ 5.70

Ask: Given the entry CCCOc1ccc(C(=O)N2CCC3(CC2)c2ccc(Cl)n2CCN3C)cc1 [Compound 590] , report its measured pIC50.
Result: 5.30 to 5.70

These entries and their values trace back to patent US8916565B2.
